Reference for the values: PubChem BioAssay (NCI)

# Test system: DU-145 prostate
# EXPERIMENT_SUMMARY: NCI tumour cell line growth inhibition, 48 h
PARAMETER: log10(TGI) (log10 of the value in µM)
The figures below represent log10 of TGI, where TGI is stated in µM.

- MOLECULE: "CC[C@H](C)[C@H](NC(=O)[C@H]1CCCCN1C)C(=O)N(C)[C@H](C[C@@H](OC(C)=O)c1nc(C(=O)NC23C4C5C2C2C3C4C52C(=O)OC)cs1)C(C)C (stereo partly specified)"
  ASSAYED_TARGET: "DU-145 prostate"
  log10(TGI): -1.51
- MOLECULE: "Cc1cc2oc(=O)cc(OC/C=C3/CCC(=O)O3)c2cc1C"
  ASSAYED_TARGET: "DU-145 prostate"
  log10(TGI): 1.09
- MOLECULE: "O=C1NC(c2cccc3ccccc23)Nc2ccccc21 (stereo unspecified)"
  ASSAYED_TARGET: "DU-145 prostate"
  log10(TGI): 0.91
- MOLECULE: "COC1=C(OC)C(=O)C(C/C=C/c2c(Cl)nc3sccn23)=C(C)C1=O"
  ASSAYED_TARGET: "DU-145 prostate"
  log10(TGI): 1.61

Tell me its log10(TGI) on DU-145 prostate: COc1cccc(C2c3cc4c(cc3OC(NNC(N)=O)C2C)OCO4)c1OC (stereo unspecified) 1.92

Please tell me the measured log10(TGI) for CC(C)C1CCC(=O)CC1CCCCC1CC(=O)CC1O[Si](C)(C)C(C)(C)C (stereo unspecified) ; system: DU-145 prostate. 1.59

Find the measured log10(TGI) of CC(C)(CN1CCCCC1)C(=O)CC(SCCS(=O)(=O)O)c1ccccc1 (stereo unspecified) with DU-145 prostate as test system. 1.47

Write down the reported log10(TGI) (system: DU-145 prostate) of C=C1C(=O)O[C@H]2[C@H]1CC/C(CNC(=O)C(C)c1ccc(CC(C)C)cc1)=C\CC[C@@]1(C)O[C@@H]21 (stereo partly specified) 0.45

---

Reported TGI values for a set of compounds
# Tested on: SK-MEL-2 melanoma
# EXPERIMENT_SUMMARY: NCI tumour cell line growth inhibition, 48 h

In the examples that follow, each entry is paired with its recorded TGI.
- COMPOUND: "CCOC(OCC)[C@@H]1C[C@@H]2N(O[C@H](OC3CCCC3(c3ccccc3)c3ccccc3)[C@H](OC(C)=O)[C@@]2(CC)Cc2ccc(OC)c(OC)c2)O1 (some centres undefined)"
  REPORTED_MEASUREMENT: "> 100 µM"
- COMPOUND: "C[N+]1(C)C/C(=C\\C=C\\c2ccccc2)C(=O)/C(=C/C=C/c2ccccc2)C1"
  REPORTED_MEASUREMENT: "64.2 µM"
- COMPOUND: "C[C@@]12C[C@@H](c3ccccc3O1)N1CCCSC1=N2"
  REPORTED_MEASUREMENT: "> 100 µM"

Let me know recorded TGI for O=C(N/N=C/c1cc(Cl)cc(Cl)c1[OH2+])c1ccncc1.O=S(=O)([O-])[O-].[Fe+2] , thanks. 94.9 µM

Give TGI for the following compound: CC1=NC(=O)CNN1C1=NNC2(C(=O)N1)c1ccccc1-c1ccccc12 > 100 µM

Please give measured TGI of the following entry: O=C(/C=C/c1ccc(O)c(O)c1)c1ccc(O)cc1O 33.4 µM

// fetch TGI given entry CCOC(=O)C(CCSC)(CCSC)C(=O)OCC > 100 µM

Supply TGI value. Item: C#Cc1cccc(Nc2ncnc3ccc(-c4cnc(N)nc4)cc23)c1 5.72 µM

Name the recorded TGI of the compound listed here: CC1(C)C2=CCCC(=O)[C@@]2(C)CC[C@@H]1O > 100 µM

Let me know recorded TGI for CCOC(=O)c1cc(C2CCN(Cc3ccccc3)C2=O)c(C(=O)/C=C(/C)N)[nH]1 (centres undefined) , thanks. > 100 µM

Answer with the recorded TGI of O=c1[nH]nc(-c2ccccc2)n1-n1cccc1 only. > 100 µM

Retrieve TGI measured for Cc1ccc2nc(-c3nccn3C)cc(C(=O)NC(C)CN(C)C)c2c1 (centres undefined) and print it. > 100 µM

Supply measured TGI of CCCCCCCCCCCCCC(=O)NO in your reply. 47.6 µM
